conditions: in ethanol, 308.15 K
ATTRIBUTE_MEASURED: solubility (mole fraction)

COMPOUND_STRUCTURE | ATTRIBUTE_MEASURED | RESULT
CS(=O)(=O)c1ccc([C@@H](O)[C@@H](CF)NC(=O)C(Cl)Cl)cc1 | solubility (mole fraction) | 0.00461

* * *

settings: in isopentanol, 288.15 K
ATTRIBUTE_MEASURED: solubility (mole fraction)

COMPOUND_STRUCTURE | ATTRIBUTE_MEASURED | QUANTITATIVE_RESULT
CS(=O)(=O)c1ccc([C@@H](O)[C@@H](CF)NC(=O)C(Cl)Cl)cc1 | solubility (mole fraction) | 0.000586
